Numbers sourced from patent US20110027290A1.

Molecular target: T1, human IL-17 (human, UniProt Q16552 20-155, limits assumed)
T1 construct: Recombinant human IL-17 from R&D Systems (#317-IL/CF, #317-IL-050); also called IL-17A; hIL-17
T1 sequence: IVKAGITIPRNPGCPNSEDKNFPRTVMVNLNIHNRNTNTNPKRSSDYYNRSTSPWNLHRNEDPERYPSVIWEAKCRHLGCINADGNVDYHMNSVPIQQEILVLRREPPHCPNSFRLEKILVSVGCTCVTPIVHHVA
Test: SPR (BIACORE 2000), mAb captured on Protein A, IL-17 injected, 25 C, 1:1 with mass transfer model;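 note: CM4 chip with immobilized Protein A, HBS-EP running buffer pH 7.4, IL-17 titrated downward from 10 nM in twofold steps, 20 min dissociation phase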
So I've got a bunch of binders here, and I need their Kd values.
Give just the number in pM; leave the unit off.

q: Provide Kd value for the following binder: mAb 103 (full-length, IgG4 Fc region) (antibody, V domains shown, also called full-length mAb 103) VH: QVQLVQSGAEVKKPGSSVKVSCKASGYSFTDYHIHWVRQAPGQGLEWMGVINPEYGTTDYNQRFKGRVTITADESTSTAYMELSSLRSEDTAVYYCARYDYFTGTGAYWGQGTLVTVSS VL: DIVMTQTPLSLSVTPGQPASISCRSSQSLRHSRGNTYLHWYLQKPGQSPQLLIYKVSNIFSGVPDRFSGSGSGTDFTLKISRVEAEDVGVYYCSQSTHYPFTFGQGTKLEIK
a: 1.4

q: Provide Kd value for the following binder: mAb 121 (full-length, IgG4 Fc region) (antibody, V domains shown, Full-length mAb with an IgG4 Fc region) VH: QVQLVQSGAEVKKPGSSVKVSCKASGYSFTDYHISWVRQAPGQGLEWMGVINPEYGTTDYNQRFKGRVTITADESTSTAYMELSSLRSEDTAVYYCARYDYFTGTGAYWGQGTLVTVSS VL: DIVMTQTPLSLSVTPGQPASISCRSSQSLKHSRGNTFLHWYLQKPGQSPQLLIYKVSNRFIGVPDRFSGSGSGTDFTLKISRVEAEDVGVYYCSQSTHYPFTFGQGTKLEIK
a: 1.6

q: Provide Kd value for the following binder: mAb 104 (full-length, IgG4 Fc region) (antibody, V domains shown, also called full-length mAb 104) VH: QVQLVQSGAEVKKPGSSVKVSCKASGYSFTDYHIHWVRQAPGQGLEWMGVINPEYGTTDYNQRFKGRVTITADESTSTAYMELSSLRSEDTAVYYCARYDYFTGTGAYWGQGTLVTVSS VL: DIVMTQTPLSLSVTPGQPASISCRSSKSLVHSRGNTFLHWYLQKPGQSPQLLIYKVSTRFSGVPDRFSGSGSGTDFTLKISRVEAEDVGVYYCSQSTHYPFTFGQGTKLEIK
a: 1.7

q: Provide Kd value for the following binder: mAb 118 (full-length, IgG4 Fc region) (antibody, V domains shown) VH: QVQLVQSGAEVKKPGSSVKVSCKASGYSFTDYHISWVRQAPGQGLEWMGVINPMYGTTDYNQRFKGRVTITADESTSTAYMELSSLRSEDTAVYYCARYDYYTGTGVYWGQGTLVTVSS VL: DIVMTQTPLSLSVTPGQPASISCRSSQSLVHSRGNTFLHWYLQKPGQSPQLLIYKVSNRFIGVPDRFSGSGSGTDFTLKISRVEAEDVGVYYCSQSTHYPFTFGQGTKLEIK
a: 3.9
